Hey, just so you know, these numbers are from the DeepSol protein solubility set.

# method: soluble on expression in E. coli; label from the status in PepcDB or PDB records
resultType: soluble on expression in E. coli

[
  {
    "querySequence": "MADDFAYLNARVRVRRGTLLKESFFQEALDLSFADFLRLLSETVYGGELAGQGLPDVDRAVLRTQAKLVGDLPRLVTGEAREAVRLLLLRNDLHNLQALLRAKATGRPFEEVLLLPGTLREEVWRQAYEAQDPAGMAQVLAVPGHPLARALRAVLRETQDLARVEALLAKRFFEDVAKAAKGLDQPALRDYLALEVDAENLRTAFKLQGSGLAPDAFFLKGGRFVDRVRFARLMEGDYAVLDELSGTPFSGLSGVRDLKALERGLRCVLLKEAKKGVQDPLGVGLVLAYVKEREWEAVRLRLLARRAYFGLPRAQVEEEVVCP",
    "resultType": "soluble on expression in E. coli",
    "value": "soluble"
  },
  {
    "querySequence": "MKTVSQLIDMKQKQTKISMVTAYDFPSAKQVEAAGIDMILVGDSLGMTVLGYESTVQVTLADMIHHGRAVRRGAPNTFVVVDMPIGAVGISMTQDLNHALKLYQETNANAIKAEGAHITPFIEKATAIGIPVVAHLGLTPQSVGVMGYKLQGATKEAAEQLILDAKNVEQAGAVALVLEAIPNDLAEEISKHLTIPVIGIGAGKGTDGQVLVYHDMLNYGVEHKAKFVKQFADFSVGVDGLKQYDQEVKSGAFPSEEYTYKKKIMNEVNNNDLEHHHHHH",
    "resultType": "soluble on expression in E. coli",
    "value": "soluble"
  },
  {
    "querySequence": "MFRNVAELVALAEKDSIKIAEVMIRQEVEVSGRSREEVIAQMDHHLSVMERAVERGLEGVVSRSGLTGGDAVRMQRYIEGGRFLSGETILDAVSKAMATNEVNAAMGVICATPTAGAAGVVPGTLFAVKEKLRPTRMEMIEFLFTAGAFGYVVANNASISGAAGGCQAEVGSAAGMAAAALVELAGGTPGQAAEAMAIALKNMLGLVCDPVAGLVEVPCVKRNAMGAANAMIAADMALAGIKSRIPCDEVIEAMYRIGAAMPVALKETAQGGLAATPTGRAIAARIFGASAASK",
    "resultType": "soluble on expression in E. coli",
    "value": "not soluble"
  },
  {
    "querySequence": "MNLPGAAEPQGGNEIPEYTGVAWHYGQPLVEQRYFERSGGFVDRSHRGVLCISGEDAAVFLNNLVSQKLIDLPHPWAGEALDLDIQGHVVHHMEIIATDEVFYVHVPAAQLESLHTFFTRMIFWSKVTIEVIDAAVISVISAQHLDALVDVPLPEALAVSPVIDFSLPRRDILVPRASLMAVAASLQEHGFQPAGMMAYTAARVRSVQPVMSLDMDATTIPHEAASLIGRGDHIGAVHLNKGCYRGQETVGRVENLGRSPRVLVMVLIDGSAPEQPHPAAPLTAGGRTVGFLGTVVDDFELGPIGLAVVKRSALKSATLQAGDDVALSIDPDSLPHDDGEKAGRVAINKLRGL",
    "resultType": "soluble on expression in E. coli",
    "value": "not soluble"
  }
]

Consider `MAHHHHHHMEAPTDNDSMQAGPVVVGHADGVLTMPSEDFASLHLQPIQDDTWIRNAEIVHMENFVETEDGKRIKREILKEYVEEKERQGTFHPDPILEGMIYQEKFMEAYRTNGRSVDADKAHSYRLKLLETHRRARAIENADT` . Its measured soluble on expression in E. coli is not soluble

Consider `SIPYQEWHSQLQSLYDSQIFHNWALCQDVHLNDEKDGLLLRLIPTRQLQKNTERIENKLLNHIELYLTYSKVYNEPLLLLRIWEEKSIDGIPMTKLMLPTDIESLLDVQGKFQLGLDTIINLEGSVWYSFHPCDTSCIVGDQAEFMSTYLRRWVSIFIFSWLGYEDS` . Its measured soluble on expression in E. coli is soluble

Consider `MSRFAPATPLLLSLLLTSCSPAQGVRVERITGGGMLYTVATVDPARDQLTLHWLNPATGKPYSSFAQLGSRLGKQGKKLLFATNSGIYMPGPKPLGLHVEGGKTLVGLNNAGKGGGNFALLPNGVFWLRGKKAGVTETQAYRKLGLAPDYATQSGPLLVANGKLHPDFNKSGTSFKVRSGVGVCGGGKVRFAISAGPVNFYSFATFFRDTLGCPDALYLDGSISAYATPDTDTQFTEFAGIWAVTARLEHHHHHH` . Its measured soluble on expression in E. coli is soluble

---

# method: soluble on expression in E. coli; label from the status in PepcDB or PDB records
resultType: soluble on expression in E. coli

The examples below pair each entry with its known result.
[
  {
    "querySequence": "MSLEHAAEILANRYVRGDALTNPDATKEYVRCKLGSYEREVFALLLLDNQNRLIEFKELFQGTVDAASVYPREVVKAVLEVNAAAVIFAHNHPSGDSTPSQADRRITERLKDTLALVDVRVLDHIVTGDTCTSFAERGWLEGHHHHHH",
    "soluble on expression in E. coli": "not soluble"
  },
  {
    "querySequence": "MEVDPGSDDVEADRETRAQKLKLKRNVKFRAQMRRFDEYCGVTNLTVDDLNWPLISGIPLQRQRLTGATYYDDSLLDQNPWDEFSIDRFLEITSIQLITAGAGYERNDEITRFVFQRTMKTIVTYCNFMYDLARRNGKVQITRFELQDLIHRDEFRFYMYFRQFLPNPDPNCTAFSNHYTSLLHTLYFNIPGMPQFWNNSQMYNYAATRGQRLVQNIAAFYPPEYFWNEDESKYHTTFVVPRGTEFSKFYARRFHEALGMPPLENEIITVLDWLAKLCILEIVYHTTIWCDITGFGGLPRIEHYRLAMENVEDIIFDLAIDDFSISRLQLQISPFEISRYSPLDVSGYYETIKRKKDIEEYQNRFYEVHYSDDVRIMNVYATDCSRKR",
    "soluble on expression in E. coli": "not soluble"
  },
  {
    "querySequence": "MELACHECGFKGEVQDFAFLCKNGCPACGESDMRQCPRCGAHVMFSRAAALEKEEMQMRDLCRELAGIERSDKPEVQKRAMELIGGLRRMNERWNIPQLGDFIKQRSRELFF",
    "soluble on expression in E. coli": "not soluble"
  },
  {
    "querySequence": "MFRIGQGFDVHQLVEGRPLIIGGIEIPYEKGLLGHSDADVLLHTVADACLGAVGEGDIGKHFPDTDPEFKDADSFKLLQHVWGIVKQKGYVLGNIDCTIIAQKPKMLPYIEDMRKRIAEGLEADVSQVNVKATTTEKLGFTGRAEGIAAQATVLIQKG",
    "soluble on expression in E. coli": "not soluble"
  },
  {
    "querySequence": "MSALSTLKVTFIVSPPSFPCFHTPGPRRKAAPFRFTGQSAYPLWYHGGMAEAFCPVYAALNLLQEKWTLHIIRALLEGPKGFNELSRAVGGVNPATLSQRLDQLVRLGVVEKRVESYMPPRTRYSLTPAGEELEEVVQAIERWARRHLKAPDPAR",
    "soluble on expression in E. coli": "soluble"
  }
]

Consider `MNKEAFERLPQEKKKIIETAYFSAVRKEISASQFFGVCKEALSKDQFESLFSSSTAGREQQEEMKTEHLQDIIQYSGVDLKEEAEHIVRETETNINFGEYEEEDVNNHIGSLMNVPLFREFVSRIGNSRRVGISEESFFLLFQVAKRKMLDIVEKMEESSKWRVEYNLSEFIIRIKNDLSRQLWCLEQIEKAEIEKFTIRRGEEEGRKKVKKTIQEREDLVIKKRLSNTVALAALGIQQKSWMSAEDVRVSEESTAFNSIYSPFDEKALERKVVNRTITMKDFLYVLERDRRYSKSVFTIQHYFRRGSA` . Its measured soluble on expression in E. coli is not soluble

Consider `MSSIGKEDIYESDGAASQVQKSEPENDNPTHPDIELISVDVDEALKKYKNRVLNLTSSDFSDSIAKKRRHAFGNNQYVLEVTGAGFSGTETAAEKLNRILYEVADLNEQIRADENLKTDLLNAEVLENLEKEVKTLQVAQSNGKTARVEHDVELPNVRTDSKVATLENRLRRIEQVIGSSVIPSAPVLDTIEDLKLRCETLNHSYVSGLEQRLNMMLTKLEKIDETRANNDIDENLDKKVDEILELMQKWDVACSSLPSNVNKVKALNRLHEQVQHFAGGLSHLKTIREKLEKEVAQGREAIIEYESQGKQEIGSVVEKLKLLEAKVADLK` . Its measured soluble on expression in E. coli is not soluble

Consider `MIELIDPISKQRLEESPEGLRNENGIVVYPLINGAYRVAASDNYTSNFGLEWNTFQKTQIDKFSGNTVSEERLFAQTNWQKNGLEGETILEVGSGAGRFSQIMLDHTKATLYSVDYSEAVEANYRNNGPHERFKLFQASIYELPFKQASFDRVICLGVLQHTPDFKASVKALVEMVKPGGELVIDFYPIRNVFTKVHGKYLLRPILKRVNHHRLMSLIRNNIDFLISIYTFNRRIGLGVFNRFVPICEIERTLPKGMTPEQLKEWIILDTFDMFSPEYDQPQRLSTVAKWVKEFGMADVDASWVTYHGKLEAPTVRGRKVLEHHHHHH` . Its measured soluble on expression in E. coli is soluble
